Please provide measured Relative Luciferase Units (RLU), CD80 Conc 5.0 nM for the entries that follow.
# targetDesc: CD28 (Homo sapiens, UniProt P10747)
# testMethodNotes: Jurkat/IL2 + CHO/OKT3 +/- PD-L1 reporter assay: PD-L1-dependent CD28 costimulation
# Assay type: cell-based
# Parameters: host or cells: Jurkat cells expressing an IL-2-luciferase reporter
# experimentalConditions: Table E21; Jurkat/IL2 + CHO/OKT3/PD-L1; CD80 Conc 5.0 nM
Report as a plain number; the unit RLU is understood.

Would you mind telling me what Relative Luciferase Units (RLU), CD80 Conc 5.0 nM value was observed for E35D/D46V/M47L/V68M (protein) VIHVTKEVKEVATLSCGHNVSVEELAQTRIYWQKDKKMVLTMMSGVLNIWPEYKNRTIFDITNNLSIMILALRPSDEGTYECVVLKYEKDAFKREHLAEVTLSVKAD ?
681

Which Relative Luciferase Units (RLU), CD80 Conc 5.0 nM value is on record for M47V/N48K/V68M (protein) VIHVTKEVKEVATLSCGHNVSVEELAQTRIYWQKEKKMVLTMMSGDVKIWPEYKNRTIFDITNNLSIMILALRPSDEGTYECVVLKYEKDAFKREHLAEVTLSVKAD ?
664

Name the reported Relative Luciferase Units (RLU), CD80 Conc 5.0 nM value associated with the molecule E35D/D46V/V68M (protein) VIHVTKEVKEVATLSCGHNVSVEELAQTRIYWQKDKKMVLTMMSGVMNIWPEYKNRTIFDITNNLSIMILALRPSDEGTYECVVLKYEKDAFKREHLAEVTLSVKAD
799

Given the entry K89N (protein) VIHVTKEVKEVATLSCGHNVSVEELAQTRIYWQKEKKMVLTMMSGDMNIWPEYKNRTIFDITNNLSIVILALRPSDEGTYECVVLKYENDAFKREHLAEVTLSVKAD , report its measured Relative Luciferase Units (RLU), CD80 Conc 5.0 nM.
116

Give the measured Relative Luciferase Units (RLU), CD80 Conc 5.0 nM of E35D/M47V/K89N (protein) VIHVTKEVKEVATLSCGHNVSVEELAQTRIYWQKDKKMVLTMMSGDVNIWPEYKNRTIFDITNNLSIVILALRPSDEGTYECVVLKYENDAFKREHLAEVTLSVKAD .
668

// returns reported Relative Luciferase Units (RLU), CD80 Conc 5.0 nM for input E35D/D46V/M47V/V68M/L85Q (protein) VIHVTKEVKEVATLSCGHNVSVEELAQTRIYWQKDKKMVLTMMSGVVNIWPEYKNRTIFDITNNLSIMILALRPSDEGTYECVVQKYEKDAFKREHLAEVTLSVKAD
980

Dear colleague, I am looking for the recorded Relative Luciferase Units (RLU), CD80 Conc 5.0 nM of the following molecule: M47V/N48K/V68M/K89N (protein) VIHVTKEVKEVATLSCGHNVSVEELAQTRIYWQKEKKMVLTMMSGDVKIWPEYKNRTIFDITNNLSIMILALRPSDEGTYECVVLKYENDAFKREHLAEVTLSVKAD
671

I have this molecule here, E35D/M47V/N48K/K89N (protein) VIHVTKEVKEVATLSCGHNVSVEELAQTRIYWQKDKKMVLTMMSGDVKIWPEYKNRTIFDITNNLSIVILALRPSDEGTYECVVLKYENDAFKREHLAEVTLSVKAD , and I need its recorded Relative Luciferase Units (RLU), CD80 Conc 5.0 nM.
814

Which Relative Luciferase Units (RLU), CD80 Conc 5.0 nM reading was recorded for the molecule E35D/N48K (protein) VIHVTKEVKEVATLSCGHNVSVEELAQTRIYWQKDKKMVLTMMSGDMKIWPEYKNRTIFDITNNLSIVILALRPSDEGTYECVVLKYEKDAFKREHLAEVTLSVKAD ?
590

Relative Luciferase Units (RLU), CD80 Conc 5.0 nM lookup needed for D46V/M47L/V68M (protein) VIHVTKEVKEVATLSCGHNVSVEELAQTRIYWQKEKKMVLTMMSGVLNIWPEYKNRTIFDITNNLSIMILALRPSDEGTYECVVLKYEKDAFKREHLAEVTLSVKAD , thanks.
724

Entry D46V/V68M/L85Q (protein) VIHVTKEVKEVATLSCGHNVSVEELAQTRIYWQKEKKMVLTMMSGVMNIWPEYKNRTIFDITNNLSIMILALRPSDEGTYECVVQKYEKDAFKREHLAEVTLSVKAD has what Relative Luciferase Units (RLU), CD80 Conc 5.0 nM?
267

For the molecule shown here, E35D/D46V/M47L/L85Q (protein) VIHVTKEVKEVATLSCGHNVSVEELAQTRIYWQKDKKMVLTMMSGVLNIWPEYKNRTIFDITNNLSIVILALRPSDEGTYECVVQKYEKDAFKREHLAEVTLSVKAD , give the reported Relative Luciferase Units (RLU), CD80 Conc 5.0 nM.
481

Name the reported Relative Luciferase Units (RLU), CD80 Conc 5.0 nM value associated with the molecule E35D/D46V/L85Q: variant CD80 IgV-Fc, IgV SEQ ID NO:203 (protein) VIHVTKEVKEVATLSCGHNVSVEELAQTRIYWQKDKKMVLTMMSGVMNIWPEYKNRTIFDITNNLSIVILALRPSDEGTYECVVQKYEKDAFKREHLAEVTLSVKAD
410

Requested read-out: Relative Luciferase Units (RLU), CD80 Conc 5.0 nM. Entry: M47V/V68M/K89N (protein) VIHVTKEVKEVATLSCGHNVSVEELAQTRIYWQKEKKMVLTMMSGDVNIWPEYKNRTIFDITNNLSIMILALRPSDEGTYECVVLKYENDAFKREHLAEVTLSVKAD
862

Item V68M/K89N (protein) VIHVTKEVKEVATLSCGHNVSVEELAQTRIYWQKEKKMVLTMMSGDMNIWPEYKNRTIFDITNNLSIMILALRPSDEGTYECVVLKYENDAFKREHLAEVTLSVKAD has what recorded Relative Luciferase Units (RLU), CD80 Conc 5.0 nM?
100
